Test system: A549 lung cancer cells
Assay: MTT cell growth and proliferation experiment, A549
Assay type: cell-based
Parameters: key: (control OD570 − test OD570)/control OD570, as fraction
Details: A549, MTT time gradient, 10 ug/ml, 1 d; fraction
The entries below are paired with their reported Inhibition Rate.
ENDPOINT LABEL: Inhibition Rate

INSERT INTO measurements (molecule, endpoint_label, observed_measurement) VALUES
  ('CC1=C(/C=C/C(C)=C/C=C/C(C)=C/C(=O)Oc2ccccc2C(F)(F)F)C(C)(C)CCC1 [Example 2a-03]', 'Inhibition Rate', 0.016),
  ('CC1=C(/C=C/C(C)=C/C=C/C(C)=C/C(=O)Nc2ccc(OC(F)(F)F)cc2)C(C)(C)CCC1 [Example 6a-01]', 'Inhibition Rate', 0.296),
  ('CC1=C(/C=C/C(C)=C/C=C/C(C)=C/C(=O)Nc2ccc(C(F)(F)F)cc2)C(C)(C)CCC1 [Example 3a-01]', 'Inhibition Rate', 0.258),
  ('CC1=C(/C=C/C(C)=C/C=C/C(C)=C/C(=O)Oc2ccc(N)cc2C(F)(F)F)C(C)(C)CCC1 [Example 4a-02]', 'Inhibition Rate', 0.111),
  ('CC1=C(/C=C/C(C)=C/C=C/C(C)=C/C(=O)Nc2cccc(OC(F)(F)F)c2)C(C)(C)CCC1 [Example 6a-02]', 'Inhibition Rate', 0.156),
  ('CC1=C(/C=C/C(C)=C/C=C/C(C)=C/C(=O)Nc2cccc(C(F)(F)F)c2)C(C)(C)CCC1 [Example 3a-02]', 'Inhibition Rate', 0.327);
